Field: bioavailability. Provide a value for each of the compounds that follow.
# Method Description: Standard Rat Pharmacokinetics (PK)
# Type: in vivo
# Run Parameters: plasma; rat, IV/PO 3/30 mg/kg; Dose(IV)*AUC(oral)/Dose(oral)*AUC(IV)
Give bare numbers, in %.

Answered cases to consult:
Nc1nc(Nc2ccc(S(=O)(=O)NC(=O)CCC(=O)O)cc2)nn1C(=O)c1c(F)cccc1F [Compound 1]    1
Nc1nc(Nc2ccc(S(=O)(=O)NC(=O)CCN3CCOCC3)cc2)nn1C(=O)c1c(F)cccc1F [Compound 7]    0
Nc1nc(Nc2ccc(S(=O)(=O)NC(=O)Cn3cnnn3)cc2)nn1C(=O)c1c(F)cccc1F [Compound 4]    0

CN(C)CC(=O)NS(=O)(=O)c1ccc(Nc2nc(N)n(C(=O)c3c(F)cccc3F)n2)cc1 [Compound 6] has a reported bioavailability of 0

* * *

# Tested on: HCT-116 colon carcinoma
# Method Description: Inhibition of cell proliferation (14C-thymidine incorporation), HCT116
# Assay type: cell-based, human
# Run Parameters: Homo sapiens, HCT-116
Attribute Measured: IC50 (µM)
Answers are plain numbers, in µM.

Answered cases to consult:
CCOC(=O)CCC(=O)NS(=O)(=O)c1ccc(Nc2nc(N)n(C(=O)c3c(F)cccc3F)n2)cc1    40.1
Nc1nc(Nc2ccc(S(=O)(=O)NC(=O)[C@@H](N)CC(=O)O)cc2)nn1C(=O)c1c(F)cccc1F    28.4
Nc1nc(Nc2ccc(S(=O)(=O)NC(=O)[C@@H]3CCCN3)cc2)nn1C(=O)c1c(F)cccc1F    3.94
Nc1nc(Nc2ccc(S(=O)(=O)NC(=O)[C@@H](N)CO)cc2)nn1C(=O)c1c(F)cccc1F    71.2
Nc1nc(Nc2ccc(S(=O)(=O)NC(=O)CCN3CCOCC3)cc2)nn1C(=O)c1c(F)cccc1F    50.8
C[C@H](N)C(=O)N[C@@H](C)C(=O)NS(=O)(=O)c1ccc(Nc2nc(N)n(C(=O)c3c(F)cccc3F)n2)cc1.O=C(O)C(F)(F)F.O=C(O)C(F)(F)F.O=C(O)C(F)(F)F [Compound 15, TFA salt]    20.8

Here is another compound to look at.
`NCC(=O)NS(=O)(=O)c1ccc(Nc2nc(N)n(C(=O)c3c(F)cccc3F)n2)cc1` has a reported IC50 of 37

* * *

Field: IC50. Provide a value for each of the compounds that follow.
# Tested On: HER2 (Homo sapiens)
# Construct: polyhistidine (N)
# Sequence (P04626 676-1255 limits assumed): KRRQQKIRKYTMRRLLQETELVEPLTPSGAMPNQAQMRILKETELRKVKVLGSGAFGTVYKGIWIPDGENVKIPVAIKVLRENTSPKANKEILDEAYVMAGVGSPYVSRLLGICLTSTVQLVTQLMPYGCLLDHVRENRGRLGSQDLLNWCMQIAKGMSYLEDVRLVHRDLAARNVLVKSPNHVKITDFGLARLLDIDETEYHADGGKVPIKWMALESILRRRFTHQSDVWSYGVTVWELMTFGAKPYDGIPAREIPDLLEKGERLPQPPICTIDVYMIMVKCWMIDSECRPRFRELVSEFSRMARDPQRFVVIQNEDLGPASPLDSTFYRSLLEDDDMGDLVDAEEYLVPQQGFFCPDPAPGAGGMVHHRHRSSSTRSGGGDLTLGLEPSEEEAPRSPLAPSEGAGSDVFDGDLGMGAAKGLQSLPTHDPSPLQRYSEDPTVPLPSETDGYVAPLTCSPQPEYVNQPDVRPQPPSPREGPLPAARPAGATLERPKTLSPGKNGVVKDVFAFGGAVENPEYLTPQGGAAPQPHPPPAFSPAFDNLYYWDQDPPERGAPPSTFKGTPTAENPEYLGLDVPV
# Method Description: HER2 Kinase Screening Assay
# Assay type: biochemical
# Run Parameters: 10 μM ATP; >10 or >100 = less than 50% inhibition at highest concentration tested

COCCOCCOCC(=O)Nc1nc(Nc2ccc(S(N)(=O)=O)cc2)nn1C(=O)c1c(F)cccc1F    > 100 µM
COCCOCC(=O)NS(=O)(=O)c1ccc(Nc2nc(N)n(C(=O)c3c(F)cccc3F)n2)cc1    ≥ 10 µM
Nc1nc(Nc2ccc(S(=O)(=O)NC(=O)CCCC(=O)O)cc2)nn1C(=O)c1c(F)cccc1F    > 100 µM
CCOC(=O)CCC(=O)NS(=O)(=O)c1ccc(Nc2nc(N)n(C(=O)c3c(F)cccc3F)n2)cc1    1.23 µM
COCCOCCOCC(=O)NS(=O)(=O)c1ccc(Nc2nc(N)n(C(=O)c3c(F)cccc3F)n2)cc1    > 100 µM
CN(C)CC(=O)NS(=O)(=O)c1ccc(Nc2nc(N)n(C(=O)c3c(F)cccc3F)n2)cc1    ≥ 10 µM

Please supply IC50 for each of the following items, keeping them in order.
1. Nc1nc(Nc2ccc(S(=O)(=O)NC(=O)[C@@H]3CCCN3)cc2)nn1C(=O)c1c(F)cccc1F
2. Nc1nc(Nc2ccc(S(=O)(=O)NC(=O)[C@@H](N)CC(=O)O)cc2)nn1C(=O)c1c(F)cccc1F
3. CCCCC(=O)NS(=O)(=O)c1ccc(Nc2nc(N)n(C(=O)c3c(F)cccc3F)n2)cc1
4. Nc1nc(Nc2ccc(S(=O)(=O)NC(=O)Cn3cnnn3)cc2)nn1C(=O)c1c(F)cccc1F
5. C[C@@H](N)C(=O)NS(=O)(=O)c1ccc(Nc2nc(N)n(C(=O)c3c(F)cccc3F)n2)cc1
6. Nc1nc(Nc2ccc(S(=O)(=O)NC(=O)[C@@H](N)CO)cc2)nn1C(=O)c1c(F)cccc1F

1. 50 µM
2. 20 µM
3. 5 µM
4. ≥ 10 µM
5. ≥ 10 µM
6. ≥ 10 µM
